assay_method_text: protection of differentiated C2C12 cells from simvastatin – single point, plate reader, primary screen (AID 602340);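 further: myotubes were challenged with 10 µM simvastatin during compound exposure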
test_parameters: C2C12 myotubes + simvastatin, ATP luminescence, 48 h; at 7.49 µM; active compounds read high; scaled: DMSO 0, geranylgeraniol control 100
Screen size: about 330,000 compounds; about 2,600 (0.79%) were called active. Shown is part of a subset that was picked to be rich in actives.
Reported rescue of ATP level values for a set of compounds
Kindly provide the numeric value in % only, without the unit symbol.

Worked examples, 3 compounds total:
Identify the reported rescue of ATP level for the following entry. COC(=O)c1cnn2c(C(F)(F)F)cc(-c3ccco3)nc12
0.418

Identify the reported rescue of ATP level for the following entry. COc1ccc(OC)c2c(N)c(C#N)c(C(F)(F)C(F)(F)F)nc12
89.2

Identify the reported rescue of ATP level for the following entry. C[C@@H]1CN([C@@H](C)CO)C(=O)c2cc(C#CCN(C)C)cnc2O[C@H]1CN(C)S(=O)(=O)c1cn(C)cn1
-11.7

---
Identify the reported rescue of ATP level for the following entry. CC1=CC(=O)C=CC1(C)C(Cl)(Cl)Cl (centres undefined)
112

Identify the reported rescue of ATP level for the following entry. CO[C@@H]1CN(C)C(=O)c2ccc(NC(=O)c3cccc(Oc4ccccc4)c3)cc2OC[C@H](C)NC[C@@H]1C
-3.89

Identify the reported rescue of ATP level for the following entry. CN(C)Cc1cn(CC[C@H]2CC[C@H](NS(=O)(=O)c3ccccc3)[C@@H](CO)O2)nn1
-2.83

Identify the reported rescue of ATP level for the following entry. CCc1noc(C)c1C(=O)Nc1nc(-c2ccccc2)cs1
-35.8

Identify the reported rescue of ATP level for the following entry. Cn1c(=O)n(C)c2cc(C(=O)Nc3ccc(Br)cc3)ccc21
-4.21

Identify the reported rescue of ATP level for the following entry. CCOC(=O)c1ccn(-c2nc(-c3ccco3)cc(C(F)(F)F)n2)n1
122

Identify the reported rescue of ATP level for the following entry. O=C(C[C@@H]1C[C@H]2c3cc(NC(=O)Nc4ccccc4F)ccc3O[C@H]2[C@@H](CO)O1)NCc1ccncc1
2.48

Identify the reported rescue of ATP level for the following entry. O=C(CSc1nc(-c2ccco2)cc(C(F)(F)F)n1)N1CCc2ccccc2C1
2.99

Identify the reported rescue of ATP level for the following entry. C=CCNC(=S)N/N=C/c1ccc(C)s1
5.1

Identify the reported rescue of ATP level for the following entry. COC(=O)C[C@H]1CC[C@H](NC(=O)Nc2ccc(C(F)(F)F)cc2)[C@H](CO)O1
-6.07

Identify the reported rescue of ATP level for the following entry. COc1ccccc1NC(=O)N1C[C@H]2[C@@H](c3ccccc31)[C@H](CO)N2Cc1ccc2c(c1)OCO2
46.6
